target-system: human P2X2/3 receptors (Homo sapiens, UniProt P56373+Q9UBL9)
Construct: expressed in transfected cells; host or cells: human astrocytoma 1321N1 (1312N1 [sic])
Sequence (P56373 whole entry): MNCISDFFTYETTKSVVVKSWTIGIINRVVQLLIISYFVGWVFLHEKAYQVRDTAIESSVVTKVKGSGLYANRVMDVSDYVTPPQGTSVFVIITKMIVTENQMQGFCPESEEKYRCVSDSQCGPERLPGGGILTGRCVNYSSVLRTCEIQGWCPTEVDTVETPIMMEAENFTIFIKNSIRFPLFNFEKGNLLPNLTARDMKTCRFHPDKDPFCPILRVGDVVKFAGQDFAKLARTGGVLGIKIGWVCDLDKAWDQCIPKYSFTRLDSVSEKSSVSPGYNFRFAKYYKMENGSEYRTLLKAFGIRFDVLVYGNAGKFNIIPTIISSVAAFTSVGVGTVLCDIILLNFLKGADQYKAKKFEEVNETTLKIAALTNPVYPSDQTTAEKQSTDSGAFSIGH
Sequence (Q9UBL9 whole entry): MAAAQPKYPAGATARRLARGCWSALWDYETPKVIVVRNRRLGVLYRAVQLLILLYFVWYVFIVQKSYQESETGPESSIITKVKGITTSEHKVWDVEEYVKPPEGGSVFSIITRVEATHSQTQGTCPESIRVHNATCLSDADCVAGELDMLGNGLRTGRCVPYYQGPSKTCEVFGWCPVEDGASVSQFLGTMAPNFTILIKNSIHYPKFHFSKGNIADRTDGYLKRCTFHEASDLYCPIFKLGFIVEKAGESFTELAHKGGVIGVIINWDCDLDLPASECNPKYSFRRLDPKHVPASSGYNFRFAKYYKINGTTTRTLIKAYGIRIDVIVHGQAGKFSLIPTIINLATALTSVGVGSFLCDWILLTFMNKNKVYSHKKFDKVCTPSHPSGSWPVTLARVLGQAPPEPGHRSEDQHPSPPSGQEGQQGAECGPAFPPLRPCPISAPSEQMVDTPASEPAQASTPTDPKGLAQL
experimental-details: Intracellular calcium measurement, antagonist activity at human P2X2/3 receptors (hP2X23 1321N1), Fluo8
Type: cell-based
condition-context: column 4); 1321N1 cells, human P2X2/3, Fluo8, agonist ATP at EC50; read-out: 4) hP2X2/3 IC50 [nM] (1321N1)
experimental-readout: IC50 (nM)
All answers are understood in nM, so give the number only.

Exercise: Please give the measured IC50 for this compound: O=C(Cn1c2c(c(=O)n3nc(C4CCOCC4)cc13)CN(C1CCCC1)C2=O)Nc1ccc(F)cn1
Key: 5050
